Data credit: ChEMBL document CHEMBL4706564

CC50 at 48 h by entry:
experiment: Cytotoxicity against human HEK293T cells incubated for 48 hrs by MTT assay; format: cell-based, HEK-293T; settings: HEK293T cells

{"columns": ["sampleSmiles", "CC50 at 48 h, µM"],
 "data": [
  ["CN1CCN(CCCC(=O)N[C@@H]2C[C@H]3CC[C@]2(C)C3(C)C)CC1", 475],
  ["CN1CCN(CC(=O)N[C@@H]2C[C@H]3CC[C@]2(C)C3(C)C)CC1", 853],
  ["CC1(C)[C@H]2CC[C@]1(C)[C@H](OC(=O)CN1CCCCCC1)C2", 71.6],
  ["CC1(C)[C@H]2CC[C@]1(C)[C@@H](OC(=O)CN1CCCCC1)C2", 89.5],
  ["CC1CCN(CCCCC(=O)O[C@@H]2C[C@@H]3CC[C@@]2(C)C3(C)C)CC1", 73]
]}
